# STUDY_TARGET: c-Met receptor tyrosine kinase, GST-c-Met(969-1390) (Homo sapiens, UniProt P08581)
# Sequence (P08581 969-1390): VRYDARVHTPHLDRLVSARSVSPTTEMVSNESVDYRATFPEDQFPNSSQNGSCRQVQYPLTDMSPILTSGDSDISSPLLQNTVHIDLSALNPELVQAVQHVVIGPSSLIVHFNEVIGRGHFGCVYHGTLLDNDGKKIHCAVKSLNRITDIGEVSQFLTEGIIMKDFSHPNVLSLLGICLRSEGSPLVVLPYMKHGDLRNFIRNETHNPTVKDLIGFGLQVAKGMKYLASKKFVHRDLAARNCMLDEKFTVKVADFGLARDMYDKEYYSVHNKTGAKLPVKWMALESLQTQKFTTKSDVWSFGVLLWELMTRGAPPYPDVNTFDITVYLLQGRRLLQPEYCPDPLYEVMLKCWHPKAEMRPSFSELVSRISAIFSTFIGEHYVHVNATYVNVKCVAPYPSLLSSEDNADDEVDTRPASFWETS
READOUT: pIC50
FYI, pIC50 means -log10 of a concentration in mol per litre.

Past entries and their recorded results:
INSERT INTO results (molecule, value_measured) VALUES
  ('O=C1CN(c2ccc3ncc(Cc4cc5cccnc5cc4F)n3n2)CCN1', 7.51),
  ('Cn1ncc2c(F)c(Cc3cnc4ccc(N5CCNC(=O)C5)nn34)c(F)cc21', 7.70);

Attention now shifts to the item below.
Exercise: Form field: pIC50 recorded for CC1C(=O)NCCN1c1ccc2ncc([C@@H](C)c3c(F)cc4ncccc4c3F)n2n1 (mixture of isomers) with c-Met receptor tyrosine kinase, GST-c-Met(969-1390) (Homo sapiens, UniProt P08581) (enter value)
Solution: 8.57

====

Entries and their pIC50 values follow.
# Tested on: MET-amplified gastric cancer cell line GTL-16
# ASSAY_EXPLANATION: GTL-16 proliferation assay (MTS)
# Assay type: cell-based
# CONDITIONS_USED: Homo sapiens, GTL-16 cells, 72 h incubation
FYI, pIC50 means -log10 of a concentration in mol per litre.

Past entries and their recorded results:
INSERT INTO measurements (compound, value_measured) VALUES
  ('CC(c1cc2cccnc2cc1F)c1cnc2ccc(N3CCNC(=O)C3)nn12 (racemic)', 7.31),
  ('CC(=O)N1CCN(c2ccc3ncc([C@@H](C)c4c(F)cc5ncccc5c4F)n3n2)CC1', 8.14),
  ('CC(c1c(F)cc2ncccc2c1F)c1cnc2ccc(N3CCN(C)CC3)nn12 (racemic)', 7.81),
  ('C[C@@H](c1c(F)cc2ncccc2c1F)c1cnc2ccc(N3CCNC(=O)[C@@H]3C)nn12', 8.32),
  ('CC(c1cc2cnn(C)c2cc1F)c1cnc2ccc(N3CCNC(=O)C3)nn12 (racemic)', 6.76);

Exercise: Form field: pIC50 recorded for CC(=O)N1CCN(c2ccc3ncc([C@@H](C)c4c(F)cc5c(cnn5C)c4F)n3n2)CC1 with MET-amplified gastric cancer cell line GTL-16 (enter value)
Solution: 7.66

Exercise: Form field: pIC50 recorded for CC1C(=O)NCCN1c1ccc2ncc([C@@H](C)c3c(F)cc4ncccc4c3F)n2n1 (mixture of isomers) with MET-amplified gastric cancer cell line GTL-16 (enter value)
Solution: 8.15

Exercise: Form field: pIC50 recorded for C[C@@H](c1cc2cnn(C)c2cc1F)c1cnc2ccc(N3CCN(C)C(=O)C3)nn12 with MET-amplified gastric cancer cell line GTL-16 (enter value)
Solution: 7.18

====

Entries and their IC50 values follow.
# Tested on: MET-amplified gastric cancer cell line GTL-16
# ASSAY_EXPLANATION: GTL-16 proliferation assay (MTS)
# Format: cell-based
# CONDITIONS_USED: Homo sapiens, GTL-16 cells, 72 h incubation
Please don't drop the unit; write it after the number.

Past entries and their recorded results:
INSERT INTO assay_data (molecule, study_target, value_measured) VALUES
  ('CC(c1c(F)cc2ncccc2c1F)c1cnc2ccc(N3CCNC(=O)C3)nn12 (racemic)', 'MET-amplified gastric cancer cell line GTL-16', '0.006 µM'),
  ('C[C@@H](c1c(F)cc2ncccc2c1F)c1cnc2ccc(N3CCNCC3)nn12', 'MET-amplified gastric cancer cell line GTL-16', '0.0064 µM'),
  ('C[C@@H](c1c(F)cc2c(cnn2C)c1F)c1cnc2ccc(N3CCN(C)C(=O)C3)nn12', 'MET-amplified gastric cancer cell line GTL-16', '0.011 µM');

Exercise: State the recorded IC50 for this entry: CC(c1c(F)cc2ncccc2c1F)c1cnc2ccc(N3CCNC(=O)C3C)nn12 (racemic)
Solution: 0.0092 µM

Exercise: State the recorded IC50 for this entry: CC(c1c(F)cc2c(cnn2C(C)C)c1F)c1cnc2ccc(N3CCNC(=O)C3)nn12 (racemic)
Solution: 0.036 µM

Exercise: State the recorded IC50 for this entry: CC(c1c(F)cc2ncccc2c1F)c1cnc2ccc(N3CCN(C(=O)C(F)(F)F)CC3)nn12 (racemic)
Solution: 0.02 µM

Exercise: State the recorded IC50 for this entry: C[C@@H](c1c(F)cc2c(cnn2C)c1F)c1cnc2ccc(N3CCNC(=O)C3)nn12
Solution: 0.011 µM

Exercise: State the recorded IC50 for this entry: CC(c1ccc2ncccc2c1F)c1cnc2ccc(N3CCNC(=O)C3)nn12 (racemic)
Solution: 0.019 µM

Exercise: State the recorded IC50 for this entry: COC(=O)N1CCN(c2ccc3ncc(Cc4c(F)cc5ncccc5c4F)n3n2)CC1
Solution: 0.025 µM

Exercise: State the recorded IC50 for this entry: O=CN1CCN(c2ccc3ncc(Cc4c(F)cc5ncccc5c4F)n3n2)CC1
Solution: 0.045 µM

Exercise: State the recorded IC50 for this entry: CC(c1c(F)cc2ncccc2c1F)c1cnc2ccc(N3CC(=O)NCC3C)nn12 (racemic)
Solution: 0.0085 µM

Exercise: State the recorded IC50 for this entry: C[C@@H](c1cc2cnn(C)c2cc1F)c1cnc2ccc(N3CCNC(=O)C3)nn12
Solution: 0.026 µM

Exercise: State the recorded IC50 for this entry: CN1CCN(c2ccc3ncc(Cc4c(F)cc5ncccc5c4F)n3n2)CC1=O
Solution: 0.037 µM

Exercise: State the recorded IC50 for this entry: Cn1ncc2c(F)c(Cc3cnc4ccc(N5CCNC(=O)C5)nn34)c(F)cc21
Solution: 0.036 µM

Exercise: State the recorded IC50 for this entry: O=C1CN(c2ccc3ncc(Cc4ccc5ncccc5c4F)n3n2)CCN1
Solution: 0.133 µM

Exercise: State the recorded IC50 for this entry: CC(c1c(F)cc2c(cnn2C)c1F)c1cnc2ccc(N3CCNC(=O)C3)nn12 (racemic)
Solution: 0.016 µM

Exercise: State the recorded IC50 for this entry: CC(c1c(F)cc2ncccc2c1F)c1cnc2ccc(N3CCN(C(N)=O)CC3)nn12 (racemic)
Solution: 0.018 µM

Exercise: State the recorded IC50 for this entry: C[C@@H](c1c(F)cc2ncccc2c1F)c1cnc2ccc(N3CCNC(=O)C3)nn12 (single isomer, unassigned)
Solution: 0.0036 µM

Exercise: State the recorded IC50 for this entry: CC(=O)N1CCN(c2ccc3ncc([C@@H](C)c4cc5cnn(C)c5cc4F)n3n2)CC1
Solution: 0.136 µM

Exercise: State the recorded IC50 for this entry: CC(c1c(F)cc2ncccc2c1F)c1cnc2ccc(N3CCN(C)C(=O)C3C)nn12 (racemic)
Solution: 0.009 µM

Exercise: State the recorded IC50 for this entry: CC(c1c(F)cc2ncccc2c1F)c1cnc2ccc(N3CCN(c4ccccn4)C(=O)C3)nn12 (racemic)
Solution: 0.013 µM

Exercise: State the recorded IC50 for this entry: C[C@@H](c1c(F)cc2ncccc2c1F)c1cnc2ccc(N3CCN(C)C(=O)C3)nn12
Solution: 0.0017 µM
